These measurements were taken from ChEMBL document CHEMBL3585316.

- assay target: Histone deacetylase 2 (Homo sapiens, UniProt Q92769)
- Sequence (Q92769 whole entry): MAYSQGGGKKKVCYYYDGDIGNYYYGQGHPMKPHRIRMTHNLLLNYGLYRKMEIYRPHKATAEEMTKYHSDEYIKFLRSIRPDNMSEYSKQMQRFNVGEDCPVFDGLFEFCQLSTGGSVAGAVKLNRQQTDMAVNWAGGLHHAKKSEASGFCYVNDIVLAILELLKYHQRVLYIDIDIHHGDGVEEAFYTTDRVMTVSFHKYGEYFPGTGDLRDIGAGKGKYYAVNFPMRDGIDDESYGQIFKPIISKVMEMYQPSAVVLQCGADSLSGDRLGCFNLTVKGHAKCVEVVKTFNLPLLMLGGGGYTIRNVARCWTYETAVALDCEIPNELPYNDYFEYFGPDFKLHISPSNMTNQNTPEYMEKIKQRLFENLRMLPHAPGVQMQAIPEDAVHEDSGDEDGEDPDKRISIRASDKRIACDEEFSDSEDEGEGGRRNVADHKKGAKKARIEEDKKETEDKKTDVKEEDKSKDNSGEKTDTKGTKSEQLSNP
- assay comment: Inhibition of recombinant HDAC2 (unknown origin) incubated for 10 mins using Boc-Lys(acetyl)-AMC fluorogenic substrate by homogeneous fluorescence release assay
Recorded pIC50 values for a group of compounds are listed next.
Notebook: values listed as pIC50 are -log10 of the concentration (mol/L).

*Q* Look up pIC50 for this compound: O=C(CCCCCCc1nc(-c2ccc(C(F)(F)F)cc2)no1)C(F)(F)F
*A* 5.55

*Q* Look up pIC50 for this compound: O=C(CCCCCCc1nc(-c2ccccc2Cl)no1)C(F)(F)F
*A* 5.80

*Q* Look up pIC50 for this compound: O=C(CCCCCCc1nc(-c2ccc(F)cc2)no1)NO
*A* 5.20

*Q* Look up pIC50 for this compound: O=C(CCCCCCc1nc(-c2cccs2)no1)C(F)(F)F
*A* 5.79

*Q* Look up pIC50 for this compound: Nc1ccccc1NC(=O)CCCCCCc1nc(-c2ccc(F)cc2)no1
*A* 5.59

Further cases:
*Q* Look up pIC50 for this compound: O=C(CCCCCCc1nc(-c2ccc([N+](=O)[O-])cc2)no1)C(F)(F)F
*A* 5.09

*Q* Look up pIC50 for this compound: O=C(CCCCCCc1nc(-c2ccc(Cl)cc2)no1)C(F)(F)F
*A* 5.07

*Q* Look up pIC50 for this compound: O=C(CCCCCCc1nc(-c2ccccc2)no1)NO
*A* 5.93

* * *

- assay target: Histone deacetylase 2 (Homo sapiens, UniProt Q92769)
- assay comment: Inhibition of recombinant HDAC2 (unknown origin) incubated for 10 mins using Boc-Lys(acetyl)-AMC fluorogenic substrate by homogeneous fluorescence release assay
pIC50: −log10 of the molar value.
The label depends only on pIC50: Criterion met if it is at least 6, Criterion not met if it is smaller.

*Q* Check the entry Nc1ccccc1NC(=O)CCCCCCc1nc(-c2cccc([N+](=O)[O-])c2)no1 : does pIC50 equal or exceed 6?
*A* Criterion not met

*Q* Check the entry O=C(CCCCCCc1nc(-c2cccs2)no1)NO : does pIC50 equal or exceed 6?
*A* Criterion met

*Q* Check the entry O=C(CCCCCCc1nc(-c2ccc(Cl)cc2)no1)NO : does pIC50 equal or exceed 6?
*A* Criterion not met

*Q* Check the entry O=C(CCCCCCc1nc(-c2ccc(F)cc2)no1)C(F)(F)F : does pIC50 equal or exceed 6?
*A* Criterion not met

* * *

- assay target: Histone deacetylase 8 (Homo sapiens)
- Sequence (Q9BY41 whole entry): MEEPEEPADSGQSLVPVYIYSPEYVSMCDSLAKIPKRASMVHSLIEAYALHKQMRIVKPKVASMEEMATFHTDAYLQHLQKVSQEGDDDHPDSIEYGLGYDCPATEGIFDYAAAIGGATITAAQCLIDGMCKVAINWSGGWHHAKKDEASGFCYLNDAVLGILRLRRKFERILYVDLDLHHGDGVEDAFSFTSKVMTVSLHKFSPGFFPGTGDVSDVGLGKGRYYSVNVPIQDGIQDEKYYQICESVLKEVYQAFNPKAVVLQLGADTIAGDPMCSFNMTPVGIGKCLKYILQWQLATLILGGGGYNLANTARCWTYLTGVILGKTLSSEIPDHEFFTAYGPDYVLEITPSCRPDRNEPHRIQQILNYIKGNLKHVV
- assay comment: Inhibition of recombinant HDAC8 (unknown origin) incubated for 10 mins using Boc-Lys(acetyl)-AMC fluorogenic substrate by homogeneous fluorescence release assay
measured attribute: IC50

*Q* Look up IC50 for this compound: Nc1ccccc1NC(=O)CCCCCCc1nc(-c2cccs2)no1
*A* > 10 µM

*Q* Look up IC50 for this compound: COc1ccc(-c2noc(CCCCCCC(=O)C(F)(F)F)n2)cc1
*A* 1.86 µM

*Q* Look up IC50 for this compound: O=C(CCCCCCc1nc(-c2ccc(C(F)(F)F)cc2)no1)NO
*A* > 10 µM

*Q* Look up IC50 for this compound: Nc1ccccc1NC(=O)CCCCCCc1nc(-c2ccc([N+](=O)[O-])cc2)no1
*A* > 10 µM

*Q* Look up IC50 for this compound: Nc1ccccc1NC(=O)CCCCCCc1nc(-c2cccc([N+](=O)[O-])c2)no1
*A* > 10 µM

*Q* Look up IC50 for this compound: COc1ccc(-c2noc(CCCCCCC(=O)NO)n2)cc1
*A* > 10 µM

*Q* Look up IC50 for this compound: O=C(CCCCCCc1nc(-c2cccs2)no1)C(F)(F)F
*A* 0.95 µM

*Q* Look up IC50 for this compound: O=C(CCCCCCc1nc(-c2cccc([N+](=O)[O-])c2)no1)C(F)(F)F
*A* 0.83 µM
